- systemTested: S. aureus RNase P (RnpA+rnpB) (Staphylococcus aureus, UniProt P0A0H5)
- Sequence (P0A0H5 whole entry): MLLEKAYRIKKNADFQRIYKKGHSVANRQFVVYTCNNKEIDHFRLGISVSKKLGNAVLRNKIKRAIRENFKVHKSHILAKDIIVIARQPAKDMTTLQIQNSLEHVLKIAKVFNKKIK
- testProtocol: RNase P activity assay (precursor tRNA processing)
- Format: biochemical
- experimentalContext: ptRNATyr processing, gel densitometry; read-out: RNase P IC50
pIC50: −log10 of the molar value.
Label true (1) when pIC50 >= 4; otherwise false (0).

Consider the following illustrative entries.
Cc1cc(Cl)ccc1OCC(=O)NNC(=S)NC(=O)/C=C/c1ccco1 [ST5524187]    true (1)
CC(C)c1ccc(OCC(=O)NNC(=S)NC(=O)c2cc3ccccc3o2)cc1 [MC-190031]    true (1)
CCCOc1ccc(C(=O)NNC(=S)NC(=O)c2ccco2)cc1 [ST5684191]    false (0)
Cc1ccccc1C(=O)NNC(=S)NC(=O)COc1ccccc1 [ST5521953]    false (0)
COc1ccc(C(=O)NNC(=S)NC(=O)c2ccco2)cc1 [ST5254069]    false (0)

Prompt line: Tell me whether pIC50 is at least 4 here: O=C(NNC(=S)NC(=O)c1ccco1)c1cnccn1 [ST5641784]
Response line: false (0)

Prompt line: Reported pIC50 at or above 4? CCc1ccc(OCc2ccc(C(=O)NNC(=S)NCC(C)C)o2)cc1 [ST5607293]
Response line: false (0)

Prompt line: Exam item: decide whether the reported pIC50 for O=C(NNC(=S)NC(=O)c1ccco1)c1ccc(NC(=O)c2ccccc2)cc1 [ST5524510] is at least 4.
Response line: false (0)

Prompt line: Does the compound O=C(NC(=S)NNC(=O)C1C[C@H]1c1ccccc1)c1ccco1 (stereo partly shown) [MC-190068] have recorded pIC50 that is 4 or more?
Response line: false (0)

Prompt line: API: above_or_equal(metric=pIC50, cutoff=4) for item CC(C)c1ccc(OCC(=O)NNC(=O)c2ccco2)cc1 [MC-190034]
Response line: false (0)

Prompt line: Does CC(C)C(=O)Nc1ccc(C(=O)NNC(=S)NC(=O)c2ccco2)cc1 [ST5525955] have a reported pIC50 of at least 4?
Response line: false (0)

Prompt line: Check this compound for pIC50 at or above 4: CC(C)c1ccc(OCC(=O)NNC(=O)Cc2ccco2)cc1 [MC-190038]
Response line: false (0)

Prompt line: Given the entry O=C(Cc1ccccc1)NNC(=S)NC(=O)c1ccco1 [ST5682126] , answer whether its pIC50 meets or surpasses 4.
Response line: false (0)
